Test: yeast display, Sf9 membrane polyspecificity reagent, FACS + sequencing; frameworks hold sequencing errors
MEASURED_PARAMETER: polyreactivity (PSR sort gate)

Worked set:
Prompt: # lookup: polyreactivity (PSR sort gate) of QVQLVESGGGLVLAGGSLRLSCAASGITFRNYAMGWYRQAPGKEMEFVATISRRAGSTYYADSVKGRFTISRDNAKNTVYLQMNSLKPEDTAVYYCVTYRNWWYDYWGQGTQVTVSS
Completion: high polyreactivity

Prompt: # lookup: polyreactivity (PSR sort gate) of QVQLVESGGGLVQAGGSLRLSCAASGRILGSYAMGWYRQAPGKERELVAGISWRGGRTYYADSVKGRFTISRDNAKNTVYLQLNSLKPEDTAVYYCATRSSSRKYGYWGQGTQVTVSS
Completion: high polyreactivity

Prompt: # lookup: polyreactivity (PSR sort gate) of QFQHVESGGGLVQARGSRRLSCAASGRTLYRNAMGWYRPARGKERELVAAITSGGHTKYADSVKGRFTISRDNAKNTVYLQMNSLKPVDTAVYYCNARYIRYSVGFLYTRYDYCGQGTQVTVSS
Completion: high polyreactivity

Prompt: # lookup: polyreactivity (PSR sort gate) of QVQLVESGGGLDQAGGSLRLSCPASGSTFLNNAMGRYRQAPGKERELVATITSGGITNYADSVKGRFTISRDNAKNCVYLQMNSLKPEDTAVYYCNADTWGFTYYYWGQGTQVTVSS
Completion: low polyreactivity

Prompt: # lookup: polyreactivity (PSR sort gate) of QVQLEESGGGLVQAGGSLRLICPASGRTFIRKAMGRYRQAPGKERELVASIRWSGGSTYYADSVKGRFTISRDNAKNTVYLQMNSLKTEDTAVYYCAASRWRPLERGTTWLHDYWGQGSQVTVSS
Completion: low polyreactivity

***
Prompt: # lookup: polyreactivity (PSR sort gate) of QVQLVESGGGFVQAGGSLRLSCAASGSTFGPYAMGWSSQAPGKDRELVAGISSGGSTYYADSVKGRFTISRDNAKNTVYLQMNSLKPEDTAVYYCATRYLYRGYSYFAYDYWGQGTQVTVSS
Completion: low polyreactivity

Prompt: # lookup: polyreactivity (PSR sort gate) of QVQLVESGGGLVQAGGSLRLSCAASGRTFRRYAMGWYRQAPGKERELVAAISFGGRTYYADSVKGRFTISRDNAKNTVYLQMNSLKPEDTAVYYCAVRSYDQLIVPRDYWGQGTQVTVSS
Completion: high polyreactivity

Prompt: # lookup: polyreactivity (PSR sort gate) of QVQLHESGGGLVQAGGSLRLSCAASGTISYAGPIGWYRQAPGKEREFVAGIGVCSNTNYADSVKGRYTIIRDNAKNTVYLQMNSLKPEDTAVYYCAAETDSWVGGYSYASLDYWGQGTQVTVSS
Completion: low polyreactivity
